All figures here come from patent US9890185B2.

Test system: d-U937 cells
test details: Accumulation of β catenin in d-U937 cells (assay m)
Type: cell-based, human
stated conditions: test compound 10 μg/mL; percentage relative to Reference Compound at 1 μg/mL
Exercise: state measured % β-catenin induction for each of the molecules provided.
Give the value, in units of %, as a plain number.

Enquiry: Returns the measured % β-catenin induction for the input molecule. Input: COc1cc(Nc2nccc(Oc3ccc(NC(=O)Nc4cc(C(C)(C)C)cc(P(C)(C)=O)c4OC)c4ccccc34)n2)cc(OC)c1
Return: 39.0

Enquiry: Returns the measured % β-catenin induction for the input molecule. Input: COc1c(NC(=O)Nc2ccc(Oc3ccnc(Nc4ccccc4)c3)c3ccccc23)cc(C(C)(C)C)cc1C(=O)NCCN1CCC1
Return: 19.0

Enquiry: Returns the measured % β-catenin induction for the input molecule. Input: COc1c(NC(=O)Nc2ccc(Oc3ccnc(Nc4ccccc4)c3)c3ccccc23)cc(C(C)(C)C)cc1C(=O)NCCN1CCOCC1
Return: 25.5

Enquiry: Returns the measured % β-catenin induction for the input molecule. Input: COc1cc(Nc2cc(Oc3ccc(NC(=O)Nc4cc(C(C)(C)C)cc(CC(N)=O)c4OC)c4ccccc34)ccn2)cc(OC)c1
Return: 1.0

====

Test system: PBMCs
test details: LPS-induced IL-8 release in PBMC cells (assay b)
Type: cell-based, human
stated conditions: Homo sapiens, PBMC; LPS-stimulated PBMCs; read-out: IC50 Values for Inhibition of Cytokine Release, PBMCs IL-8
Exercise: state measured pIC50 for each of the molecules provided.
Note: pIC50 values are expressed as the negative base-10 logarithm of concentration in M.

Enquiry: Returns the measured pIC50 for the input molecule. Input: C#Cc1cc(Nc2cc(Oc3ccc(NC(=O)Nc4cc(C(C)(C)C)cc(P(C)(C)=O)c4OC)c4ccccc34)ccn2)cc(C(=O)NCCOCCOCCOC)c1 [Example 3]
Return: 8.55

Enquiry: Returns the measured pIC50 for the input molecule. Input: COc1ccc(Nc2nccc(Oc3ccc(NC(=O)Nc4cc(C(C)(C)C)cc(P(C)(C)=O)c4OC)c4ccccc34)n2)cc1 [15(h)]
Return: 8.34

Enquiry: Returns the measured pIC50 for the input molecule. Input: COc1cc(Nc2cc(Oc3ccc(NC(=O)Nc4cc(C(C)(C)C)cc(CNC(C)=O)c4OC)c4ccccc34)ccn2)cc(C(N)=O)c1 [38(ac)]
Return: 9.40

Enquiry: Returns the measured pIC50 for the input molecule. Input: COc1cc(Nc2cc(Oc3ccc(NC(=O)Nc4cc(C(C)(C)C)cc(CC(N)=O)c4OC)c4ccccc34)ccn2)cc(S(N)(=O)=O)c1 [38(ai)]
Return: 8.80

Enquiry: Returns the measured pIC50 for the input molecule. Input: CNC(=O)Cc1cc(C(C)(C)C)cc(NC(=O)Nc2ccc(Oc3ccnc(Nc4cccc(OC)c4)c3)c3ccccc23)c1OC [38(h)]
Return: 8.57

Enquiry: Returns the measured pIC50 for the input molecule. Input: COc1cc(C#N)cc(Nc2cc(Oc3ccc(NC(=O)Nc4cc(C(C)(C)C)cc(CC(N)=O)c4OC)c4ccccc34)ccn2)c1 [38(ah)]
Return: 8.64

Enquiry: Returns the measured pIC50 for the input molecule. Input: COc1c(NC(=O)Nc2ccc(Oc3ccnc(Nc4ccccc4)n3)c3ccccc23)cc(C(C)(C)C)cc1[S+](C)[O-] (centres unmarked) [15(k)]
Return: 8.25

Enquiry: Returns the measured pIC50 for the input molecule. Input: COc1cc(Nc2cc(Oc3ccc(NC(=O)Nc4cc(C(C)(C)C)cc([S+](C)[O-])c4OC)c4ccccc34)ccn2)ccc1C(=O)NCCN1CCOCC1 (centres unmarked) [Example 72]
Return: 8.68

====

system name: p38 MAPKα isoform (MAPK14) (Homo sapiens (Human))
Sequence (Q16539 whole entry, canonical isoform): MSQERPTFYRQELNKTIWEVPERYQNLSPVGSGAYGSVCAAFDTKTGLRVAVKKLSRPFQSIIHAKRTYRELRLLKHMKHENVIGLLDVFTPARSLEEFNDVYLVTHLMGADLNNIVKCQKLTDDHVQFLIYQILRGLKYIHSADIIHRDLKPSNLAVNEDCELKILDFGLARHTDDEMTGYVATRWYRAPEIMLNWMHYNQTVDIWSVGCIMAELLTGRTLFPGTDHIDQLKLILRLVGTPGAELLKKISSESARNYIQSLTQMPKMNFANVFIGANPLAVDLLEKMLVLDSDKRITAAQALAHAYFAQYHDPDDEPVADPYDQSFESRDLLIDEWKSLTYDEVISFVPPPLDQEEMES
test details: p38 MAPKα enzyme inhibition (FRET, Z-LYTE, Method 2)
Exercise: state measured pIC50 for each of the molecules provided.
Note: pIC50 values are expressed as the negative base-10 logarithm of concentration in M.

Enquiry: Returns the measured pIC50 for the input molecule. Input: COc1cccc(Nc2cc(Oc3ccc(NC(=O)Nc4cc(C(C)(C)C)cc(P(C)(C)=O)c4OC)c4ccccc34)ccn2)c1 [15(af)]
Return: 6.65

Enquiry: Returns the measured pIC50 for the input molecule. Input: COc1c(NC(=O)Nc2ccc(Oc3ccnc(Nc4ccccc4)c3)c3ccccc23)cc(C(C)(C)C)cc1C(=O)NCCN1CCOCC1 [Example 14]
Return: 6.41

Enquiry: Returns the measured pIC50 for the input molecule. Input: COc1c(CC(N)=O)cc(C(C)(C)C)cc1NC(=O)Nc1ccc(Oc2ccnc(Nc3ccn(C)n3)c2)c2ccccc12 [38(o)]
Return: 8.05

Enquiry: Returns the measured pIC50 for the input molecule. Input: COc1c(NC(=O)Nc2ccc(Oc3ccnc(Nc4cccnc4)c3)c3ccccc23)cc(C(C)(C)C)cc1P(C)(C)=O [15(ad)]
Return: 6.74

Enquiry: Returns the measured pIC50 for the input molecule. Input: COc1c(CC(N)=O)cc(C(C)(C)C)cc1NC(=O)Nc1ccc(Oc2ccnc(NCc3ccccn3)c2)c2ccccc12 [38(d)]
Return: 7.89

====

Exercise: state measured IC50 for each of the compounds provided.
Test system: PBMCs
test details: LPS-induced IL-8 release in PBMC cells (assay b)
Format: cell-based, human
stated conditions: Homo sapiens, PBMC; LPS-stimulated PBMCs; read-out: IC50 Values for Inhibition of Cytokine Release, PBMCs IL-8
Give the value, in units of nM, as a plain number.

Enquiry: Returns the measured IC50 for the input compound. Input: COc1cc(Nc2cc(Oc3ccc(NC(=O)Nc4cc(C(C)(C)C)cc(S(C)(=O)=O)c4OC)c4ccccc34)ccn2)ccc1C(=O)O
Return: 4.5

Enquiry: Returns the measured IC50 for the input compound. Input: COc1c(NC(=O)Nc2ccc(Oc3ccnc(Nc4ccc5c(c4)OCCO5)n3)c3ccccc23)cc(C(C)(C)C)cc1P(C)(C)=O
Return: 10.5

Enquiry: Returns the measured IC50 for the input compound. Input: COc1c(C[S+](C)[O-])cc(C(C)(C)C)cc1NC(=O)Nc1ccc(Oc2ccnc(Nc3ccccc3)c2)c2ccccc12 (centres unmarked)
Return: 5.3

Enquiry: Returns the measured IC50 for the input compound. Input: COc1cc(Nc2cc(Oc3ccc(NC(=O)Nc4cc(C(C)(C)C)cc(CC(N)=O)c4OC)c4ccccc34)ccn2)ccc1C(=O)NCC(CO)(CO)CO
Return: 1.5

Enquiry: Returns the measured IC50 for the input compound. Input: COc1cc(Nc2cc(Oc3ccc(NC(=O)Nc4cc(C(C)(C)C)cc(CP(C)(C)=O)c4OC)c4ccccc34)ccn2)cc(C(=O)NCCN2CCOCC2)c1
Return: 1.7

Enquiry: Returns the measured IC50 for the input compound. Input: COc1cccc(Nc2cc(Oc3ccc(NC(=O)Nc4cc(C(C)(C)C)cc(CC(=O)N(C)C)c4OC)c4ccccc34)ccn2)c1
Return: 11.4

Enquiry: Returns the measured IC50 for the input compound. Input: COc1c(CNC(C)=O)cc(C(C)(C)C)cc1NC(=O)Nc1ccc(Oc2ccnc(Nc3ccccc3)c2)c2ccccc12
Return: 3.4

Enquiry: Returns the measured IC50 for the input compound. Input: COCCOCCOCCNC(=O)c1cc(Nc2cc(Oc3ccc(NC(=O)Nc4cc(C(C)(C)C)cc(S(C)(=O)=O)c4OC)c4ccccc34)ccn2)cc(OC)c1
Return: 1.4

====

Test system: d-U937 cells
test details: Accumulation of β catenin in d-U937 cells (assay m)
Format: cell-based, human
stated conditions: test compound 1 μg/mL; percentage relative to Reference Compound at 1 μg/mL
Exercise: state measured % β-catenin induction for each of the compounds provided.
Note: a bare number is incomplete; add the unit.

Enquiry: Returns the measured % β-catenin induction for the input compound. Input: COCCOCCOCCOc1cc(Nc2nccc(Oc3ccc(NC(=O)Nc4cc(C(C)(C)C)cc(OCP(C)(C)=O)c4OC)c4ccccc34)n2)cc(OC)c1
Return: 1.0%

Enquiry: Returns the measured % β-catenin induction for the input compound. Input: COc1c(CC(N)=O)cc(C(C)(C)C)cc1NC(=O)Nc1ccc(Oc2ccnc(Nc3ccccc3)c2)c2ccccc12
Return: −4.0%

Enquiry: Returns the measured % β-catenin induction for the input compound. Input: COc1c(NC(=O)Nc2ccc(Oc3ccnc(Nc4cnn(C)n4)n3)c3ccccc23)cc(C(C)(C)C)cc1P(C)(C)=O
Return: 7.0%
